- System Name: ligand binding domain (LBD) of recombinant human FXR (Homo sapiens (Human), UniProt Q96RI1)
- Sequence (Q96RI1 254-486): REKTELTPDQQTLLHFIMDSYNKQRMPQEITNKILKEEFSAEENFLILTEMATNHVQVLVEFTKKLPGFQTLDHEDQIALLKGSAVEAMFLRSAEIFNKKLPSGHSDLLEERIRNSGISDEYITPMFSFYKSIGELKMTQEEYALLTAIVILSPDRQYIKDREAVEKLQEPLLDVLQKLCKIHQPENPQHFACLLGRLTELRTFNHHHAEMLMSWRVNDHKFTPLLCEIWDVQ
- Sequence (Q15788 whole entry partner, the tested form may be a part): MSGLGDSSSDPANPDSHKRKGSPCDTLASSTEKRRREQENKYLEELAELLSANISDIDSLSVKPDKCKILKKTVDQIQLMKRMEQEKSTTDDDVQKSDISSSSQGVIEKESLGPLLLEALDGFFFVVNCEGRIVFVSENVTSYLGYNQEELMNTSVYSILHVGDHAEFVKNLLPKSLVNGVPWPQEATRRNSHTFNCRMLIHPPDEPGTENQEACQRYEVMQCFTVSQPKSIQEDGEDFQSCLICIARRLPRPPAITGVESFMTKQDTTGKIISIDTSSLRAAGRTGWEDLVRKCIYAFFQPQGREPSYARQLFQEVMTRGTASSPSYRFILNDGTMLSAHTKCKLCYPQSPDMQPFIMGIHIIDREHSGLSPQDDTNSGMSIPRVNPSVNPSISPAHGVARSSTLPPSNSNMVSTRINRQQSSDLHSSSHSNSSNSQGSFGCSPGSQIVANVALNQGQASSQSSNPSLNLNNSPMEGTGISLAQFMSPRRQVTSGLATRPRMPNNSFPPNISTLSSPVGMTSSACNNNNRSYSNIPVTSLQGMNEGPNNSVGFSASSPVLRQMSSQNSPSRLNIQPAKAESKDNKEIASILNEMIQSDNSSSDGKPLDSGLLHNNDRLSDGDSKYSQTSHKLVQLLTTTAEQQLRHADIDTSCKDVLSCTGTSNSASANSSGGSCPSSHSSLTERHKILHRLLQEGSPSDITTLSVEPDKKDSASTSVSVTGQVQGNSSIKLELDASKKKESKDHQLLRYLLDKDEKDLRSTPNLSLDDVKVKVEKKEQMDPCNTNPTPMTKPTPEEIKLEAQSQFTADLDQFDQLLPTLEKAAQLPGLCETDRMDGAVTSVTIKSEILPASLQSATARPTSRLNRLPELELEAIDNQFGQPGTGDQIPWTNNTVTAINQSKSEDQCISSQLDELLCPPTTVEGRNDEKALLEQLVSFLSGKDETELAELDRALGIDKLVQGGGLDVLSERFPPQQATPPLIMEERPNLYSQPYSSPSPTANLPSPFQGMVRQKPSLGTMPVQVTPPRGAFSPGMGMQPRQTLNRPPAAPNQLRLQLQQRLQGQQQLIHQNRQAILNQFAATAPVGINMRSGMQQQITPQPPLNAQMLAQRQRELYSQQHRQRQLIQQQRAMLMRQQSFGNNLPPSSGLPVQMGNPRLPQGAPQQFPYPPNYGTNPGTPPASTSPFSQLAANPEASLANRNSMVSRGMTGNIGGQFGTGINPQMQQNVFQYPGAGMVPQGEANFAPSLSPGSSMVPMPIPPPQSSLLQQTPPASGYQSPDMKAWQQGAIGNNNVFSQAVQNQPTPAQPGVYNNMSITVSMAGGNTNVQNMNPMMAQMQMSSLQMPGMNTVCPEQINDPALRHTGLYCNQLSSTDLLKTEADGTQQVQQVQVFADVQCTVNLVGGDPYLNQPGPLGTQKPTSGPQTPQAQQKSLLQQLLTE
- Protocol Description: FXR cell free coactivator (SRC-1) recruitment assay, TR-FRET
- Condition Label: FXR LBD (amino acids 244-476) with labeled SRC-1 domain, 25° C. for 60 minutes, activity relative to CDCA maximum; read-out: EC50 FXR- Biochemical TR-FRET/μM
Property Name: EC50 (µM)
Number in µM, nothing else.

Observe how each entry below is paired with its result.
* C[C@@H]1C[C@H](OCc2c(-c3c(F)cccc3F)noc2C2CC2)CCN1c1ccc(-c2noc(=O)[nH]2)cn1 [Example 73] | 0.0476
* C[C@H]1CN(c2ccc(-c3noc(=O)[nH]3)cc2)CC[C@@H]1OCc1c(-c2c(Cl)cccc2Cl)noc1C1CC1 [Example 33] | 0.142
* O=c1[nH]c(-c2ccc(N3CCC(OCc4c(-c5ccccc5OC(F)(F)F)noc4C4CC4)C(F)(F)C3)cc2)no1 (stereo not drawn) [Example 54] | 0.0376
* COc1cccc(F)c1-c1noc(C2CC2)c1COC1CCN(c2ccc(-c3noc(=O)[nH]3)cc2)CC1 [Example 28] | 0.149
* O=c1[nH]c(-c2ccc(N3CCC(OCc4c(-c5ccccc5OC(F)(F)F)noc4C4CC4)CC3)cc2)no1 [Example 36] | 0.0188
* O=c1cc(-c2ccc(N3CCC(OCc4c(-c5ccccc5OC(F)(F)F)noc4C4CC4)CC3)cc2)o[nH]1 [Example 52] | 0.143
* O=c1[nH]c(-c2cc(N3CCC(OCc4c(-c5c(Cl)cccc5Cl)noc4C4CC4)CC3)no2)no1 [Example 42] | 0.139
* O=c1[nH]c(-c2ccc(N3CCC(OCc4c(-c5c(Cl)cccc5Cl)noc4C4CC4)CC3)cn2)no1 [Example 9] | 0.175

### Prompt Form field: reported EC50 of CCOc1cccc(F)c1-c1noc(C2CC2)c1COC1CCN(c2ccc(-c3noc(=O)[nH]3)cc2)CC1 [Example 27]
### Response 0.227

### Prompt Which EC50 is listed for Cn1nc(N2CCC(OCc3c(-c4c(Cl)cccc4Cl)noc3C3CC3)CC2)cc1-c1noc(=O)[nH]1 [Example 70] ?
### Response 0.233

###

Measured log10 of EC50, listed per entry.
- System Name: full length human FXR protein (Homo sapiens (Human), UniProt Q96RI1)
- Sequence (Q96RI1 whole entry, the tested form may be a part): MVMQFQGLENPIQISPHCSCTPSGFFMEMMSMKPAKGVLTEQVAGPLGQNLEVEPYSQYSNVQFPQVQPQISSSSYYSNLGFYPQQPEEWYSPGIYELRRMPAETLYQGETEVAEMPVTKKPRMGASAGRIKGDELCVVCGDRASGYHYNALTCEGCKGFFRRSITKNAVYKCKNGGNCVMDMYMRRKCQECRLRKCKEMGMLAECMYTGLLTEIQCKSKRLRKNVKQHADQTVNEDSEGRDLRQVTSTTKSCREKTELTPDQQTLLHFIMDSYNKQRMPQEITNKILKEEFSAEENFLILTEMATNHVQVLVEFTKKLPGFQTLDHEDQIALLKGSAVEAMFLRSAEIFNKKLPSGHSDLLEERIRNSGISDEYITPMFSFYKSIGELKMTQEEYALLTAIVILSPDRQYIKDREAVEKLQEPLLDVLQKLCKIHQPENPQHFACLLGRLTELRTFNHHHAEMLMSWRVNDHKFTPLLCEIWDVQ
- Protocol Description: FXR cellular assay (FXR-SRCP β-gal enzyme fragment complementation in CHO-K1 cells, chemiluminescence)
- Condition Label: CHO-K1 cells with SRCP-EA and ProLink-labeled FXR, 0-10 micromolar compound, 37° C. for 6h, read-out: EC50 FXR-cell Luminescence/
Form field - Quantity: EC50; Unit: nM; Scale: log10

* C[C@H]1C[C@H](OCc2c(-c3c(Cl)cccc3Cl)noc2C2CC2)CCN1c1ccc(-c2noc(=O)[nH]2)cc1 | 2.60
* O=c1[nH]c(-c2ccc(N3CCCC(OCc4c(-c5c(F)cccc5F)noc4C4CC4)CC3)cc2)no1 (stereo not drawn) | 2.17
* C[C@@H]1C[C@H](OCc2c(-c3c(Cl)cccc3Cl)noc2C2CC2)CCN1c1ccc(-c2noc(=O)[nH]2)cc1 | 1.44
* O=c1[nH]c(-c2cc(N3CCC(OCc4c(-c5c(Cl)cccc5Cl)noc4C4CC4)CC3)cs2)no1 | 3.56
* O=c1[nH]c(-c2ccc(N3CCC(OCc4c(-c5c(Cl)cccc5Cl)noc4C4CC4)C(F)(F)C3)cc2)no1 (stereo not drawn) | 1.97
* C[C@H]1CN(c2ccc(-c3noc(=O)[nH]3)cc2)CC[C@H]1OCc1c(-c2c(Cl)cccc2Cl)noc1C1CC1 | 2.29

### Prompt Which log10 of EC50 is reported with full length human FXR protein (Homo sapiens (Human), UniProt Q96RI1) for this entry: `O=c1[nH]c(-c2ccc(N3CC[C@@H](OCc4c(-c5ccccc5OC(F)(F)F)noc4C4CC4)[C@H](F)C3)cc2)no1` ?
### Response 2.49

### Prompt Identify the measured log10 of EC50 of `O=c1[nH]c(-c2ccc(N3CCC(OCc4c(-c5c(Cl)cccc5Cl)noc4C4CC4)CC3)s2)no1` for full length human FXR protein (Homo sapiens (Human), UniProt Q96RI1).
### Response 2.51

### Prompt Give log10 of EC50 (full length human FXR protein (Homo sapiens (Human), UniProt Q96RI1)) of the following molecule: `O=c1[nH]c(-c2ccc(N3CCC(OCc4c(-c5c(Cl)cccc5Cl)noc4C4CC4)CC3)nc2)no1`
### Response 2.57

### Prompt Lab note: need log10 of EC50 with full length human FXR protein (Homo sapiens (Human), UniProt Q96RI1) for entry `O=c1[nH]c(-c2ccc(N3CCC(OCc4c(-c5ccccc5Cl)noc4C4CC4)CC3)cc2)no1` , please look it up.
### Response 2.57

### Prompt Request - read-out log10 of EC50 | tested on full length human FXR protein (Homo sapiens (Human), UniProt Q96RI1) | molecule `O=c1[nH]nc(-c2ccc(N3CCC(OCc4c(-c5c(Cl)cccc5Cl)noc4C4CC4)CC3)cc2F)o1`
### Response 2.53

### Prompt Write down the reported log10 of EC50 of `Clc1cccc(Cl)c1-c1noc(C2CC2)c1COC1CCN(c2ccc(C3=NN3)cc2)CC1` , test system: full length human FXR protein (Homo sapiens (Human), UniProt Q96RI1).
### Response 2.84

###

- System Name: ligand binding domain (LBD) of recombinant human FXR (Homo sapiens (Human))
- Protocol Description: FXR cell free coactivator (SRC-1) recruitment assay, TR-FRET
- Condition Label: FXR LBD (amino acids 244-476) with labeled SRC-1 domain, 25° C. for 60 minutes, activity relative to CDCA maximum; read-out: EC50 FXR- Biochemical TR-FRET/μM
Measured EC50 accompanies every entry in the list below.
Number only, in µM; omit the unit.

# annotated cases, reported EC50 shown
• Clc1cccc(Cl)c1-c1noc(C2CC2)c1COC1CCN(c2ccc(C3=NN3)cc2)CC1 = 2.89
• O=c1[nH]nc(-c2ccc(N3CCC(OCc4c(-c5ccccc5OC(F)(F)F)noc4C4CC4)CC3)cc2)c(=O)[nH]1 = 0.0847
• O=C(c1noc(=O)[nH]1)N1CCC(OCc2c(-c3c(Cl)cccc3Cl)noc2C2CC2)CC1 = 3.18
• C[C@@H]1CN(c2ccc(-c3noc(=O)[nH]3)cc2)CC[C@H]1OCc1c(-c2c(Cl)cccc2Cl)noc1C1CC1 = 0.153
• O=c1[nH]nc(-c2ccc(N3CCC(OCc4c(-c5ccccc5OC(F)(F)F)noc4C4CC4)CC3)cc2)o1 = 0.325

### Prompt Entry `O=c1[nH]nc(-c2ccc(N3CCC(OCc4c(-c5c(Cl)cccc5Cl)noc4C4CC4)CC3)cc2)c(=O)[nH]1` has what EC50?
### Response 0.0091

### Prompt Sample `C[C@@H]1C[C@H](OCc2c(-c3ccccc3Cl)noc2C2CC2)CCN1c1ccc(-c2noc(=O)[nH]2)cn1` — what was its EC50?
### Response 0.0045

### Prompt Could you share which EC50 value was measured for O=c1[nH]c(-c2ccc(N3CCCC(OCc4c(-c5ccccc5OC(F)(F)F)noc4C4CC4)CC3)cc2)no1 (centres unmarked) ?
### Response 0.0037

### Prompt Could you share which EC50 value was measured for `C[C@@H]1C[C@@H](OCc2c(-c3c(Cl)cccc3Cl)noc2C2CC2)CCN1c1ccc(-c2noc(=O)[nH]2)cc1` ?
### Response 0.0793

### Prompt // lookup EC50 for `O=c1[nH]c(-c2ccc(N3CCC(OCc4c(-c5c(Cl)cccc5Cl)noc4C4CC4)CC3)nc2)no1`
### Response 0.0044

### Prompt # input molecule: `O=c1[nH]c(-c2cccc(N3CCC(OCc4c(-c5c(Cl)cccc5Cl)noc4C4CC4)CC3)c2)no1` ; wanted: its EC50
### Response 0.105
